- run_description: Emergency IND No. 131,642, GNX plasma concentration
- Type: in vivo
- measurement_context: human, intravenous, eIND 131,642, Day 1 regimen delivering 900 mg
measurement_name: concentration at 1 day

Requested read-out: concentration at 1 day. Entry: CC(=O)[C@H]1CC[C@H]2[C@@H]3CC[C@H]4C[C@](C)(O)CC[C@]4(C)[C@H]3CC[C@]12C [Ganaxolone, 3α-hydroxy-3β-methyl-5α-pregnan-20-one]
900 to 1200 ng/mL
